targetUnderTest: Progesterone receptor (Homo sapiens) (UniProt P06401)
Sequence (P06401 whole entry, looked up): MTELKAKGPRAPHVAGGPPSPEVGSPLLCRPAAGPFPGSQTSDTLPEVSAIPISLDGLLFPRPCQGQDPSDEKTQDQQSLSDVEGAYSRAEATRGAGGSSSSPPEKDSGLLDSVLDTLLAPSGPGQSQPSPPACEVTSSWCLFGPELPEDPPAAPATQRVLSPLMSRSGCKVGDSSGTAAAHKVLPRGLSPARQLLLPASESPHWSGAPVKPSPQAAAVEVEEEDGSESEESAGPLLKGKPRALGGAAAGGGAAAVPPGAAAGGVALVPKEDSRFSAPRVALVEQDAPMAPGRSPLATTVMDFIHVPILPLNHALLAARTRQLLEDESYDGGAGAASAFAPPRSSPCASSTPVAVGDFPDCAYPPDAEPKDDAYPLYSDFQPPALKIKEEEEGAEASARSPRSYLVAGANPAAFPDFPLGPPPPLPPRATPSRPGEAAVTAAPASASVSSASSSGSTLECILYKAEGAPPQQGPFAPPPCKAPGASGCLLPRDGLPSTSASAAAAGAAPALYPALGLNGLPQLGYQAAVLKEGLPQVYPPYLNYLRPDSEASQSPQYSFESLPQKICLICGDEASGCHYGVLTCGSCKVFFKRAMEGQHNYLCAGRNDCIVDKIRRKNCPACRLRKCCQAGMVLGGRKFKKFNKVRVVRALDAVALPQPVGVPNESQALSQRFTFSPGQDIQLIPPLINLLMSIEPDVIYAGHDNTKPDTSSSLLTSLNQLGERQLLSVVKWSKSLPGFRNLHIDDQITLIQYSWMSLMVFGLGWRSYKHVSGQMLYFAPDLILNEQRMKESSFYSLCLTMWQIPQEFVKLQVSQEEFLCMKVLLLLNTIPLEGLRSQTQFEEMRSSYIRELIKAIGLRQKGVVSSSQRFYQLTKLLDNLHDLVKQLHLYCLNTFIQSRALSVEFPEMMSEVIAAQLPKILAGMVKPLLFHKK
assay: qHTS assay to identify small molecule antagonists of the progesterone receptor (PR) signaling pathway (AID 1346795); also: % is scaled to controls: 0 for no effect and ±100 for the full control effect
conditions: PR-UAS-bla HEK293T, beta-lactamase FRET ratio, 16 h; series mostly up to 92.4 µM
Results filed as inconclusive are left out. Activity calls are given as the source filed them. Calls follow the shape of the dose curve; as a rule, active = well fitted inhibition curve with a large enough effect in the signal ratio in the repeat runs (not every such curve was filed as active); inconclusive = weak or mixed curves; inactive = flat fitted curve, though single readings scatter; the % refers to the signal ratio.
Pick from t = active, f = inactive when you respond.

| compound | targetUnderTest | classLabel |
| --- | --- | --- |
| Cc1[nH]c(=O)n(C(C)(C)C)c(=O)c1Cl | Progesterone receptor (Homo sapiens) (UniProt P06401) | f |
| COC(=O)NS(=O)(=O)c1ccc(N)cc1 | Progesterone receptor (Homo sapiens) (UniProt P06401) | f |
| COCCl | Progesterone receptor (Homo sapiens) (UniProt P06401) | f |

Hi, do you know how CN(C)N=O came out in this test?
f

Follow-up entry: O=[N+]([O-])c1ccc([As](=O)(O)O)cc1
f

###

targetUnderTest: Androgen receptor (Homo sapiens)
assay: qHTS assay to identify small molecule agonists of the androgen receptor (AR) signaling pathway using the MDA cell line (AID 743040; also: % is scaled to controls: 0 for no effect and ±100 for the full control effect; nearly all actives have a fitted effect of over 20% in size)
conditions: MDA-kb2 AR-luc cells, MMTV luciferase, 16 h; series mostly up to 70.3 µM
Activity calls are given as the source filed them. The call rests on the fitted dose curve; in most records, active means well fitted activation curve with a large enough effect in the repeat runs; inconclusive means weak or mixed curves; inactive means flat fitted curve, though single readings scatter.
measuredQuantity: outcome

Worked set:
| smilesStr | outcome |
| --- | --- |
| CCN(CC)c1ccccc1 | inactive |
| CCNc1nc(NC(C)C)nc(SC)n1 | inactive |
| COCCl | inactive |
| [N-]=[N+]=[N-] | inactive |
| C=C(C)CCl | inactive |
| CCCN(CCC)c1c([N+](=O)[O-])cc(C(F)(F)F)cc1[N+](=O)[O-] | inactive |
| O=c1[nH]c(=O)[nH]c(=O)[nH]1 | inactive |
| Cc1[nH]c(=O)n(C(C)(C)C)c(=O)c1Cl | inactive |
| c1cc2c3c(cccc3c1)CC2 | inactive |

Turning now to a further record.
What does the data say about its outcome? Entry: O=c1ccc(=O)[nH][nH]1
inactive

###

assay: qHTS assay for small molecule agonists of the antioxidant response element (ARE) signaling pathway (AID 743202); also: % is scaled to controls: 0 for no effect and ±100 for the full control effect
conditions: HepG2 ARE-bla reporter, beta-lactamase FRET, 16 h; series mostly up to 73.3 µM
Results filed as inconclusive are left out. Calls of active or inactive are those of the source. Calls follow the shape of the dose curve; as a rule, active = well fitted activation curve with a large enough effect in the signal ratio in the repeat runs (not every such curve was filed as active); inconclusive = weak or mixed curves, or effect the other way; inactive = no such curve, though single readings can be large or run the other way; the % refers to the signal ratio.
Please reply with one of these outcomes: t (active), f (inactive)

| compound | classLabel |
| --- | --- |
| Cc1ccc(N)cc1N | f |
| CCCN(CCC)c1c([N+](=O)[O-])cc(C(F)(F)F)cc1[N+](=O)[O-] | f |

Dear colleague, could you share the recorded outcome for O=NN1CCCCCCC1 when you have a moment?
f

// query: Cc1cc(Cl)ccc1O
f

###

assay: qHTS assay for identifying genotoxic compounds that show differential cytotoxicity against isogenic chicken DT40 cell lines with known DNA damage response pathways - Rev3 mutant cell line (AID 743014); also: nearly all actives have a fitted effect of over 55% in size
conditions: chicken DT40 Rev3-/- viability, CellTiter-Glo, 40 h; series mostly up to 68.4 µM
Inconclusive results are not listed. Activity calls are given as the source filed them. Calls come from the whole dose curve; as a rule, active = well fitted cell-killing curve with a large enough effect in the repeat runs; inconclusive = weak or mixed curves, or effect the other way; inactive = no such curve, though single readings can be large or run the other way.

| molecule | outcome |
| --- | --- |
| NCC(O)c1ccc(O)cc1 (centres undefined) | inactive |
| O=NN1CCCC1 | inactive |
| OC(O)C(Cl)(Cl)Cl | inactive |
| CC(C)OC(=O)Nc1cccc(Cl)c1 | inactive |

###

assay: qHTS assay to identify small molecule agonists of H2AX (AID 1224845); also: % is scaled to controls: 0 for no effect and ±100 for the full control effect
conditions: CHO-K1 phospho-H2AX Ser139 HTRF, 3 h; series mostly up to 154 µM
Inconclusive results are not listed. Activity calls are given as the source filed them. The call rests on the fitted dose curve; in most records, active means well fitted activation curve with a large enough effect in the signal ratio in the repeat runs (not every such curve was filed as active); inconclusive means weak or mixed curves; inactive means flat fitted curve, though single readings scatter; the % refers to the signal ratio.
measuredQuantity: outcome

The cases that follow already have their outcome on record.
| compound | outcome |
| --- | --- |
| CC(C#N)CCC#N (stereo not drawn) | inactive |
| COC(=O)c1ccccc1C(=O)OC | inactive |
| O=c1n(Cl)c(=O)n(Cl)c(=O)n1Cl | inactive |
| CCNc1nc(NC(C)(C)C)nc(SC)n1 | inactive |
| C=CC(N)=O | inactive |
| CC(C)(C)C(O)(CCc1ccc(Cl)cc1)Cn1cncn1 (stereo not drawn) | inactive |

Given the entry O=[N+]([O-])c1ccc([As](=O)(O)O)cc1 , report its measured outcome.
inactive

Okay, and CCCCCOC(=O)c1ccccc1C(=O)OCCCCC ?
inactive

###

assay: qHTS assay to identify small molecule antagonists of the estrogen related receptor signaling pathway with the pleiotropic PPARgamma coactivator (PGC) from Tox21 10K library - cell viability counter screen (AID 1224840); also: % is scaled to controls: 0 for no effect and ±100 for the full control effect; nearly all actives have a fitted effect of over 40% in size
conditions: PGC/ERR reporter cells viability, CellTiter-Fluor, 17.5 h; series mostly up to 92.4 µM
Procedure: National Center for Advancing Translational Sciences [NCATS] NIH Chemical Genomics Center [NCGC] U.S. Environmental Protection Agency [EPA] National Institutes of Environmental Health Sciences [NIEHS] National Toxicology Program [NTP] […] The PGC/ERR cells were dispensed at 2,000 cells/5 ul/well in 1536-well white plates using a Multidrop dispenser. […] After 30-minute incubation at 37 C/5% CO2, the fluorescence intensity in the plates was measured using a ViewLux plate reader.
Records with an inconclusive call do not appear. Calls of active or inactive are those of the source. Calls come from the whole dose curve; as a rule, active = well fitted cell-killing curve with a large enough effect in the repeat runs (not every such curve was filed as active); inconclusive = weak or mixed curves, or effect the other way; inactive = no such curve, though single readings can be large or run the other way.
measuredQuantity: outcome

Example entries begin here.
| molecule | result |
| --- | --- |
| c1cc2c3c(cccc3c1)CC2 | inactive |
| CCCCN(CC)C(=O)SCCC | inactive |
| CON(C)C(=O)Nc1ccc(Cl)c(Cl)c1 | inactive |
| NCC(O)c1ccc(O)cc1 (stereo unspecified) | inactive |
| CCOP(=S)(OCC)SCCSCC | inactive |
| Clc1ccc(Cl)cc1 | inactive |
| Cc1cc(Cl)ccc1O | inactive |
| CCOP(=S)(OCC)Oc1cnc2ccccc2n1 | inactive |
| Cc1cc(-c2cc(C)c(N)c(C)c2)cc(C)c1N | inactive |
| OC(O)C(Cl)(Cl)Cl | inactive |

Could you now consider this next molecule?
Returns the measured outcome for the input molecule. Input: CC(NC(C)(C)C)C(=O)c1cccc(Cl)c1 (stereo unspecified)
inactive

###

targetUnderTest: Vitamin D3 receptor (Homo sapiens) (UniProt P11473)
Sequence (P11473 whole entry, looked up): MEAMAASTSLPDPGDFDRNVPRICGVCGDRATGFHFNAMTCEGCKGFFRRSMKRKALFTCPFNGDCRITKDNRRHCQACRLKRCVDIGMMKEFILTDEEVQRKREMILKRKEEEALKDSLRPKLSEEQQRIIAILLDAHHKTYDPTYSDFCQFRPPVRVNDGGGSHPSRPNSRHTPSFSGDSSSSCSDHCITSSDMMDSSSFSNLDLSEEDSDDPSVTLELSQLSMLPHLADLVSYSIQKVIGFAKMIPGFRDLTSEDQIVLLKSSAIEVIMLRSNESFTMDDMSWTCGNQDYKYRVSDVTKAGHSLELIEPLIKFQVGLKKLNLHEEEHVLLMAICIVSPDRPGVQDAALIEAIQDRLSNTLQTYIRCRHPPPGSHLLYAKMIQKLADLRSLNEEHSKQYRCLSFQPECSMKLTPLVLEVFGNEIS
assay: qHTS assay to identify small molecule agonists of the vitamin D receptor (VDR) signaling pathway (AID 743222); also: % is scaled to controls: 0 for no effect and ±100 for the full control effect
conditions: HEK293T VDR-UAS-bla, beta-lactamase FRET ratio, 16 h; series mostly up to 63.5 µM
Records with an inconclusive call do not appear. The source made the active and inactive calls. Calls follow the shape of the full dose curve.
measuredQuantity: outcome

Example cases with answers are listed next.
| compound | measuredQuantity | result |
| --- | --- | --- |
| O=C(NC(=O)c1c(F)cccc1F)Nc1cc(Cl)c(OC(F)(F)C(F)C(F)(F)F)cc1Cl (stereo unspecified) | outcome | inactive |
| ClCc1cccnc1 | outcome | inactive |
| CN=C=S | outcome | inactive |
| CC(NC(C)(C)C)C(=O)c1cccc(Cl)c1 (stereo unspecified) | outcome | inactive |
| Cc1ccccc1O | outcome | inactive |

Look up outcome for this compound: CC(C)OC(=O)Nc1ccccc1
inactive

###

targetUnderTest: Aryl hydrocarbon receptor (Homo sapiens) (UniProt P35869)
Sequence (P35869 whole entry, looked up): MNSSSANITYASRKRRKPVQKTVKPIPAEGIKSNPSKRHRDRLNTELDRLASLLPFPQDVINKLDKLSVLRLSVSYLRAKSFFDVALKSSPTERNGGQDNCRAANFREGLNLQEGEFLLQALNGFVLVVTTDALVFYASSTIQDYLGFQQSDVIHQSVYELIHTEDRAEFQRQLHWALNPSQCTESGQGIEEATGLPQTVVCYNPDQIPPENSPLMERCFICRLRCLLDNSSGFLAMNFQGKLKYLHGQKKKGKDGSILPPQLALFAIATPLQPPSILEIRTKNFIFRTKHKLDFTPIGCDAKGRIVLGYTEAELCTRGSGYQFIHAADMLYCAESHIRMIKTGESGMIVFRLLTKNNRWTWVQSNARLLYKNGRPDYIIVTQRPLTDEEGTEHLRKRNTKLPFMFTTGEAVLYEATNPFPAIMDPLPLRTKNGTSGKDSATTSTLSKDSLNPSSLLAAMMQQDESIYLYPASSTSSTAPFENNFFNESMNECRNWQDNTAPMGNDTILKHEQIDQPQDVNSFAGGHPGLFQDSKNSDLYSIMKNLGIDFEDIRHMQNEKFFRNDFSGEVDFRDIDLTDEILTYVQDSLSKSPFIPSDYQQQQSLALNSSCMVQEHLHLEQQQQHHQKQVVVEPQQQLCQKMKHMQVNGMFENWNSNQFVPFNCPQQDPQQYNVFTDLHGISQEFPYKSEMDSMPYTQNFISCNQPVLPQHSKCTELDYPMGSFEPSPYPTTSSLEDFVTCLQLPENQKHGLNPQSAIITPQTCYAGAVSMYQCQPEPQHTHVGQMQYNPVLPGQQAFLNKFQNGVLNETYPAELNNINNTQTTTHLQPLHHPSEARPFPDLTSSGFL
assay: qHTS assay to identify small molecule that activate the aryl hydrocarbon receptor (AhR) signaling pathway (AID 743085); also: nearly all actives have a fitted effect of over 15% in size
conditions: HepG2 AhR-luc (HG2L7.5c1), luciferase, 24 h; series mostly up to 70.3 µM
Records with an inconclusive call do not appear. The source made the active and inactive calls. Calls follow the shape of the dose curve; as a rule, active = well fitted activation curve with a large enough effect in the repeat runs; inconclusive = weak or mixed curves; inactive = no such curve, though single readings can be large or run the other way.
Can you answer with just one of these options? 1 (yes) (active), 0 (no) (inactive)

| compound | classLabel |
| --- | --- |
| CC(C)(Cl)Cl | 0 (no) |

Record lookup: outcome of this test for Cc1ccccc1O ?
0 (no)

c1cc2c3c(cccc3c1)CC2 ?
0 (no)

And what about the compound CC(C)(C)OOC(C)(C)C ?
0 (no)

Also need CCCCCOC(=O)c1ccccc1C(=O)OCCCCC , thanks.
0 (no)

Entry CN(C)CCO please
0 (no)

Same thing, different compound: COP(N)(=O)SC (configuration not stated)
0 (no)

For Nc1ccc(Oc2ccc(N)cc2)cc1 then?
1 (yes)

Also, O=Cc1cccc(Oc2ccccc2)c1 please.
0 (no)

###

assay: qHTS assay for identifying genotoxic compounds that show differential cytotoxicity against isogenic chicken DT40 cell lines with known DNA damage response pathways - Rev3 mutant cell line (AID 743014); also: nearly all actives have a fitted effect of over 55% in size
conditions: chicken DT40 Rev3-/- viability, CellTiter-Glo, 40 h; series mostly up to 68.4 µM
Inconclusive results are not listed. Calls of active or inactive are those of the source. Calls follow the shape of the dose curve; as a rule, active = well fitted cell-killing curve with a large enough effect in the repeat runs; inconclusive = weak or mixed curves, or effect the other way; inactive = no such curve, though single readings can be large or run the other way.
Write down one outcome, taken from T for active, F for inactive

Take a look at these entries with their results.
| molecule | classLabel |
| --- | --- |
| OCCN(CCO)CCO | F |
| Cc1ccc(N)cc1Cl | F |

Called result for COC(=O)NC(=S)Nc1ccccc1NC(=S)NC(=O)OC
T

And what about the molecule c1ccc(-c2ccccc2)cc1 ?
F

Ok, now CNC(=O)Oc1ccccc1OC(C)C
F

# repeat for CCNc1nc(NC(C)(C)C)nc(SC)n1
T

Repeat with O=[N+]([O-])c1ccc([As](=O)(O)O)cc1
F

Now the molecule COP(N)(=O)SC (stereo not drawn)
F

Reference source for all entries: PubChem BioAssay (Tox21)
